- system.name: PU.1 (IVT) (UniProt P17947 1-270)
- assay.notes: PBM; 20 mM HEPES pH 7.9, 100 mM NaCl, 1 mM DTT, 0.2 mg/mL BSA, 0.02% Triton X-100, 2% milk, 0.4 mg/mL salmon testes DNA, 1 h; temperature not stated
- cond: protein: ivt; blunt
Catalogue of binding signal readings, one per entry.
Respond with the bare value in z-score.

Below are worked cases with known answers.
PBM_PU1_IRF8_v2_2 (dsDNA) DNA 1: GCCTAGCACGAAAAGGGGAAGTGTATTCCGTGCTAGGTCTTGATTCGCTTGACGCTGCTG DNA 2: CAGCAGCGTCAAGCGAATCAAGACCTAGCACGGAATACACTTCCCCTTTTCGTGCTAGGC | 7.7
PBM_PU1_IRF8_v2_13 (dsDNA) DNA 1: GCCTAGCACGAAAAGAGGAAGTCAGATTGGTGCTAGGTCTTGATTCGCTTGACGCTGCTG DNA 2: CAGCAGCGTCAAGCGAATCAAGACCTAGCACCAATCTGACTTCCTCTTTTCGTGCTAGGC | 8.24

Let's switch to this binder now.
I have this binder here, PBM_PU1_IRF8_v2_16 (dsDNA) DNA 1: GCCTAGCACAATATAGGGAAGTGCTTAACGTGCTAGGTCTTGATTCGCTTGACGCTGCTG DNA 2: CAGCAGCGTCAAGCGAATCAAGACCTAGCACGTTAAGCACTTCCCTATATTGTGCTAGGC , and I need its recorded binding signal. 5.82
